Values were extracted from ChEMBL document CHEMBL1811838.

- METHOD DESCRIPTION: Toxicity in C57BL/6J mouse splenic lymphocytes after 72 hrs by Alamar blue Assay
- Assay type: cell-based
- COND: splenic lymphocyte
pIC50: −log10 of the molar value.
Quick list: pIC50 per entry.
READOUT NAME: pIC50

CCCCCCCCc1cc(CCCCCCC)[nH]c1/C=C1\N=C(c2ccc[nH]2)C=C1OC : 5.41
COC1=CC(c2ccc[nH]2)=N/C1=C\c1[nH]c(C)cc1C : > 6.90
COC1=CC(c2ccc[nH]2)=N/C1=C\c1[nH]ccc1CC(C)C : > 6.90
CCCCCCc1cc(Cc2ccc(F)cc2)c(/C=C2\N=C(c3ccc[nH]3)C=C2OC)[nH]1 : 5.84
CCCCCCCCc1cc(Cc2ccc(F)cc2)c(/C=C2\N=C(c3ccc[nH]3)C=C2OC)[nH]1 : > 6.90
COC1=CC(c2ccc[nH]2)=N/C1=C\c1[nH]ccc1Cc1ccc(OC)cc1 : > 6.90
CCCCCCCCc1cc(CCCCCC)[nH]c1/C=C1\N=C(c2ccc[nH]2)C=C1OC : > 6.90
CCCCCCCCc1cc(CCCCCCCC)c(/C=C2\N=C(c3ccc[nH]3)C=C2OC)[nH]1 : 4.51
CCc1cc(Cc2ccc(Cl)cc2)c(/C=C2\N=C(c3ccc[nH]3)C=C2OC)[nH]1 : > 6.90
